Settings: Crystal; DTA
readout: Normal melting temperature (°C)
Your answer is read as °C, so omit the unit and give the number.

Returns the measured Normal melting temperature for the input compound. Input: Cc1cc[n+]([O-])cc1 [4-methylpyridine-N-oxide]
184.60

What do you have for O=C(O)c1cc[n+]([O-])cc1 [4-pyridinecarboxylic acid N-oxide] ?
268.50

Follow-up entry: O=C(O)c1cccc[n+]1[O-] [picolinic acid N-oxide]
163.80

Try the compound [O-][n+]1ccccc1S [2-mercaptopyridine N-oxide]
71.20

NC(=O)c1ccc[n+]([O-])c1 [nicotinamide N-oxide] , same question.
289.50

How about this compound: [O-][n+]1ccccc1 [pyridine N-oxide]
63.80

Also need Cc1cc(C)c[n+]([O-])c1 [3,5-dimethylpyridine N-oxide] , thanks.
101.30

Next: O=C(O)c1ccc[n+]([O-])c1 [3-pyridinecarboxylic acid N-oxide]
258.30

Another compound to look at: [O-][n+]1cccc(O)c1 [3-hydroxypyridine-N-oxide]
189.70

Item: "O=C(O)c1ccccc1"
121.60

Proceed to Cc1ccc[n+]([O-])c1 [3-picoline N-oxide]
37.10

And the next one, O=[N+]([O-])c1cc[n+]([O-])cc1 [4-nitropyridine N-oxide] ?
160.80

Note, next up: [O-][n+]1cccc2ccccc21 [quinoline 1-oxide]
55.40
